Overview of recorded Bliss excess for various compounds
Test system: OS-RC-2 (Kidney Carcinoma)
Assay: Bliss excess, mean over the matrix (fraction); higher = more synergy
recorded.metric: Bliss excess

>>> observed_value("COc1nnc2ccc(N3CCC(c4ccc(OCCN5CCN(C)C(=O)[C@H]5C)cc4)CC3)nn12 [AZD5153] + Cc1c2c(nn1C)CSCc1cc(n(C)n1)CSc1cc(c3ccccc3c1)OCCCc1c(C(=O)O)n(C)c3c-2c(Cl)ccc13 [AZD5991] (first compound max 1 µM, 7x7, partner max 1 µM)")
-0.0106
>>> observed_value("C[C@@H]1COCCN1c1cc(C2([S@](C)(=N)=O)CC2)nc(-c2ccnc3[nH]ccc23)n1 [AZD6738] + O=C(c1cc(Cc2n[nH]c(=O)c3ccccc23)ccc1F)N1CCN(C(=O)C2CC2)CC1 [Olaparib] (first compound max 10 µM, 7x7, partner max 10 µM)")
-0.0085
>>> observed_value("C=CCn1c(=O)c2cnc(Nc3ccc(N4CCN(C)CC4)cc3)nc2n1-c1cccc(C(C)(C)O)n1 [AZD1775] + C1CN(CCC1(C(=O)N[C@@H](CCO)C2=CC=C(C=C2)Cl)N)C3=NC=NC4=C3C=CN4 [Capivasertib] (first compound max 3 µM, partner max 3 µM)")
-0.085
>>> observed_value("C[C@@H](c1ccc2nccn2c1)n1nnc2ncc(-c3cnn(C)c3)nc21 [Savolitinib] + CN(CC[C@H](CSC1=CC=CC=C1)NC2=C(C=C(C=C2)S(=O)(=O)NC(=O)C3=CC=C(C=C3)N4CCC(CC4)[C@H](C5=CC=CC=C5C6=CC=C(C=C6)Cl)O)S(=O)(=O)C(F)(F)F)CCO [AZD4320] (first compound max 1 µM, 7x7, partner max 1 µM)")
-0.0618
>>> observed_value("CN(CCO)CC[C@H](CSc1ccccc1)Nc1ccc(S(=O)(=O)NC(=O)c2ccc(N3CCC([C@@H](O)c4ccccc4-c4ccc(Cl)cc4)CC3)cc2)cc1S(=O)(=O)C(F)(F)F [AZD4320] + CN(C)CCCOc1ccc(-c2ccc3ncc4c(c3c2)n(C2CCOCC2)c(=O)n4C)cn1 [AZD0156] (first compound max 1 µM, 7x7, partner max 1 µM)")
-0.0706
>>> observed_value("CC1(C)CCC(CN2CCN(c3ccc(C(=O)NS(=O)(=O)c4ccc(NCC5CCOCC5)c([N+](=O)[O-])c4)c(Oc4cnc5[nH]ccc5c4)c3)CC2)=C(c2ccc(Cl)cc2)C1 [Venetoclax] + Cc1cc2ncnn2cc1Nc1ncc2c(n1)n(C1CCOCC1)c(=O)n2C [AZD7648] (first compound max 1 µM, 7x7, partner max 10 µM)")
-0.0584

---

Test system: CAPAN-2 (Pancreatic Carcinoma)
Test: Bliss excess, mean over the matrix (fraction); higher = more synergy
recorded.metric: Bliss excess

>>> observed_value("Cc1c2c(nn1C)CSCc1cc(n(C)n1)CSc1cc(c3ccccc3c1)OCCCc1c(C(=O)O)n(C)c3c-2c(Cl)ccc13 [AZD5991] + C[C@@H]1COCCN1C2=NC(=NC(=C2)C3(CC3)[S@](=N)(=O)C)C4=C5C=CNC5=NC=C4 [AZD6738] (first compound max 1 µM, 7x7, partner max 10 µM)")
0.0543
>>> observed_value("NC1(C(=O)N[C@@H](CCO)c2ccc(Cl)cc2)CCN(c2ncnc3[nH]ccc23)CC1 [Capivasertib] + CC(=O)c1c(C)c2cnc(Nc3ccc(N4CCNCC4)cn3)nc2n(C2CCCC2)c1=O [Palbociclib] (first compound max 10 µM, 7x7, partner max 10 µM)")
-0.0164
>>> observed_value("N#Cc1cnc(Nc2cc(NC[C@H]3CNCCO3)c(C(F)(F)F)cn2)cn1 [SRA737] + Nc1ccn([C@@H]2O[C@H](CO)[C@@H](O)C2(F)F)c(=O)n1 [Gemcitabine] (first compound max 10 µM, 7x7, partner max 0.3 µM)")
0.0141
>>> observed_value("Cc1nc(-c2cn3c(n2)-c2ccc(-c4cnn(C(C)(C)C(N)=O)c4)cc2OCC3)n(C(C)C)n1 [Taselisib] + O=C(Nc1ccc2[nH]nc(-c3ccncc3)c2c1)[C@@H]1CCN(CC(=O)N2CCN(c3ccc(-c4ncccn4)cc3)CC2)C1 [SCH772984] (first compound max 10 µM, 7x7, partner max 5 µM)")
0.0241
>>> observed_value("CS(=O)(=O)CCNCc1ccc(-c2ccc3ncnc(Nc4ccc(OCc5cccc(F)c5)c(Cl)c4)c3c2)o1 [Lapatinib] + Cn1cnc2c(F)c(Nc3ccc(Br)cc3Cl)c(C(=O)NOCCO)cc21 [Selumetinib] (first compound max 10 µM, 7x7, partner max 10 µM)")
0.0147
>>> observed_value("COc1nnc2ccc(N3CCC(c4ccc(OCCN5CCN(C)C(=O)[C@H]5C)cc4)CC3)nn12 [AZD5153] + CCN(CCO)CCCOc1ccc2c(Nc3cc(CC(=O)Nc4cccc(F)c4)[nH]n3)ncnc2c1 [AZD2811] (first compound max 1 µM, 7x7, partner max 1 µM)")
-0.0286
>>> observed_value("CN(CCO)CC[C@H](CSc1ccccc1)Nc1ccc(S(=O)(=O)NC(=O)c2ccc(N3CCC([C@@H](O)c4ccccc4-c4ccc(Cl)cc4)CC3)cc2)cc1S(=O)(=O)C(F)(F)F [AZD4320] + Cn1cnc2c(F)c(Nc3ccc(Br)cc3Cl)c(C(=O)NOCCO)cc21 [Selumetinib] (first compound max 1 µM, 7x7, partner max 3 µM)")
0.0819
>>> observed_value("NC1(C(=O)N[C@@H](CCO)c2ccc(Cl)cc2)CCN(c2ncnc3[nH]ccc23)CC1 [Capivasertib] + CC(C)n1c(=O)n(C)c2cnc3cc(F)c(-c4ccc(OCCCN5CCCCC5)nc4)cc3c21 [AZD1390] (first compound max 10 µM, 7x7, partner max 0.3 µM)")
-0.0651

---

System: CAPAN-2 (Pancreatic Carcinoma)
Experiment: combination Emax (second highest fraction inhibited in the dose matrix, 72 h); higher = more inhibition; extreme values may be limits of the assay
Rule: combination Emax of 0.3 or more gives satisfied; anything lower gives not satisfied.

>>> class_name("N#Cc1cnc(Nc2cc(NC[C@H]3CNCCO3)c(C(F)(F)F)cn2)cn1 [SRA737] + Nc1ccn([C@@H]2O[C@H](CO)[C@@H](O)C2(F)F)c(=O)n1 [Gemcitabine] (first compound max 10 µM, 7x7, partner max 0.3 µM)")
"satisfied"
>>> class_name("CS(=O)(=O)CCNCc1ccc(-c2ccc3ncnc(Nc4ccc(OCc5cccc(F)c5)c(Cl)c4)c3c2)o1 [Lapatinib] + C[C@@H](Oc1cc(-c2cnn(C3CCNCC3)c2)cnc1N)c1c(Cl)ccc(F)c1Cl [Crizotinib] (first compound max 10 µM, 7x7, partner max 10 µM)")
"satisfied"
>>> class_name("NC1(C(=O)N[C@@H](CCO)c2ccc(Cl)cc2)CCN(c2ncnc3[nH]ccc23)CC1 [Capivasertib] + CCN(CCO)CCCOc1ccc2c(Nc3cc(CC(=O)Nc4cccc(F)c4)[nH]n3)ncnc2c1 [AZD2811] (first compound max 10 µM, 7x7, partner max 1 µM)")
"not satisfied"
>>> class_name("COc1cccc(OCCCN)c1-c1cc(Nc2cnc(C#N)cn2)n[nH]1 [Prexasertib] + CN(C)CCCOc1ccc(-c2ccc3ncc4c(c3c2)n(C2CCOCC2)c(=O)n4C)cn1 [AZD0156] (first compound max 1 µM, 7x7, partner max 1 µM)")
"satisfied"
>>> class_name("CN(C)CCCOc1ccc(-c2ccc3ncc4c(c3c2)n(C2CCOCC2)c(=O)n4C)cn1 [AZD0156] + C[C@@H]1COCCN1C2=NC(=NC(=C2)C3(CC3)[S@](=N)(=O)C)C4=C5C=CNC5=NC=C4 [AZD6738] (first compound max 1 µM, 7x7, partner max 10 µM)")
"satisfied"
>>> class_name("Cc1c2c(nn1C)CSCc1cc(n(C)n1)CSc1cc(c3ccccc3c1)OCCCc1c(C(=O)O)n(C)c3c-2c(Cl)ccc13 [AZD5991] + CCN(CCO)CCCOc1ccc2c(Nc3cc(CC(=O)Nc4cccc(F)c4)[nH]n3)ncnc2c1 [AZD2811] (first compound max 1 µM, 7x7, partner max 1 µM)")
"not satisfied"
>>> class_name("C[C@@H](Oc1cc(-c2cnn(C3CCNCC3)c2)cnc1N)c1c(Cl)ccc(F)c1Cl [Crizotinib] + CC1=C(C(=CC=C1)Cl)NC(=O)C2=CN=C(S2)NC3=CC(=NC(=N3)C)N4CCN(CC4)CCO [Dasatinib] (first compound max 10 µM, 7x7, partner max 2 µM)")
"satisfied"
>>> class_name("CN(CCO)CC[C@H](CSc1ccccc1)Nc1ccc(S(=O)(=O)NC(=O)c2ccc(N3CCC([C@@H](O)c4ccccc4-c4ccc(Cl)cc4)CC3)cc2)cc1S(=O)(=O)C(F)(F)F [AZD4320] + Cn1cnc2c(F)c(Nc3ccc(Br)cc3Cl)c(C(=O)NOCCO)cc21 [Selumetinib] (first compound max 1 µM, 7x7, partner max 3 µM)")
"satisfied"
>>> class_name("Cc1cc2ncnn2cc1Nc1ncc2c(n1)n(C1CCOCC1)c(=O)n2C [AZD7648] + C=CCn1c(=O)c2cnc(Nc3ccc(N4CCN(C)CC4)cc3)nc2n1-c1cccc(C(C)(C)O)n1 [AZD1775] (first compound max 10 µM, partner max 1 µM)")
"satisfied"
>>> class_name("Cc1c2c(nn1C)CSCc1cc(n(C)n1)CSc1cc(c3ccccc3c1)OCCCc1c(C(=O)O)n(C)c3c-2c(Cl)ccc13 [AZD5991] + Cc1cc2ncnn2cc1Nc1ncc2c(n1)n(C1CCOCC1)c(=O)n2C [AZD7648] (first compound max 1 µM, 7x7, partner max 10 µM)")
"not satisfied"
>>> class_name("COc1cccc(OCCCN)c1-c1cc(Nc2cnc(C#N)cn2)n[nH]1 [Prexasertib] + O=C(c1cc(Cc2n[nH]c(=O)c3ccccc23)ccc1F)N1CCN(C(=O)C2CC2)CC1 [Olaparib] (first compound max 1 µM, 7x7, partner max 10 µM)")
"satisfied"
>>> class_name("NC1(C(=O)N[C@@H](CCO)c2ccc(Cl)cc2)CCN(c2ncnc3[nH]ccc23)CC1 [Capivasertib] + C[C@@H]1COCCN1C2=NC(=NC(=C2)C3(CC3)[S@](=N)(=O)C)C4=C5C=CNC5=NC=C4 [AZD6738] (first compound max 10 µM, 7x7, partner max 10 µM)")
"not satisfied"
>>> class_name("C[C@@H](c1ccc2nccn2c1)n1nnc2ncc(-c3cnn(C)c3)nc21 [Savolitinib] + Cc1c2c(nn1C)CSCc1cc(n(C)n1)CSc1cc(c3ccccc3c1)OCCCc1c(C(=O)O)n(C)c3c-2c(Cl)ccc13 [AZD5991] (first compound max 1 µM, 7x7, partner max 1 µM)")
"not satisfied"
